Reference source for all entries: ChEMBL document CHEMBL1201862

tested on: K562; assay: NCI tumour cell line growth inhibition, 48 h
The source made the active and inactive calls. Rule as the data show it: active = GI50 up to about 1.1 µM and inactive = higher. Where a SMILES comes first, the peptide text is derived from it. The star is where a group is joined. Boc = CC(C)(C)OC(=O)*; Bn = c1ccc(C*)cc1
Outcome codes: active, inactive

COMPOUND: O=[N+]([O-])c1cccc2nc3ccccc3c(NCCCNc3c4ccccc4nc4cccc([N+](=O)[O-])c34)c12
TARGET DESC: K562
CATEGORY: active
//
COMPOUND: CCC1(C(=O)OC(C)(C)C)OC12C(C)CCCC2C (stereo not drawn)
TARGET DESC: K562
CATEGORY: inactive
//
COMPOUND: COc1cc2nncc(SCc3ccc(Cl)c(Cl)c3)c2cc1OC
TARGET DESC: K562
CATEGORY: inactive
//
COMPOUND: O=C(Cc1nc2ccccc2o1)C(=O)Nc1cccc(Cl)c1
TARGET DESC: K562
CATEGORY: inactive
//
COMPOUND: CS(=O)(=O)N1CC(CCl)c2ccc(O)cc21 (stereo not drawn)
TARGET DESC: K562
CATEGORY: inactive
//
COMPOUND: Cn1c(=O)c2c(ncn2CN2CCN(Cn3cnc4c3c(=O)n(C)c(=O)n4C)CC2)n(C)c1=O
TARGET DESC: K562
CATEGORY: inactive
//
COMPOUND: COC(=O)C(CC(C)C)NC(=O)C(C)NC(=O)C(Cc1ccc(OCc2ccccc2)cc1)NC(=O)C(COCc1ccccc1)NC(=O)OC(C)(C)C (stereo not drawn) (Boc-S(Bn)Y(Bn)AL-OMe; configuration not given here)
TARGET DESC: K562
CATEGORY: inactive
//
COMPOUND: CCCCCCCCCCCC[C@H](O)[C@H]1CC[C@H]([C@H](O)CCCC[C@H](O)CCCCC[C@@H](O)CC2=C[C@H](C)OC2=O)O1
TARGET DESC: K562
CATEGORY: inactive
//
COMPOUND: N=C(N)SCc1ccc(Cl)cc1Cl.O=[N+]([O-])c1c(O)c(Cl)cc(Cl)c1Cl
TARGET DESC: K562
CATEGORY: inactive
//
COMPOUND: Brc1ccc2c(C3CN[C@@H](c4c[nH]c5cc(Br)ccc45)CN3)c[nH]c2c1 (stereo partly drawn)
TARGET DESC: K562
CATEGORY: inactive
//
COMPOUND: CCC1C(=O)OCc2c1cc1n(c2=O)C(CC)c2c-1nc1ccccc1c2Cl (stereo not drawn)
TARGET DESC: K562
CATEGORY: inactive
//
COMPOUND: COc1ccc(N2C(=O)[C@@H]3[C@@H]4CC(C)CC[C@@H]4c4c([nH]c5ccccc45)[C@@H]3C2=O)cc1 (stereo partly drawn)
TARGET DESC: K562
CATEGORY: inactive
//
COMPOUND: NC(=O)/C=C/NC(=O)/C=N\O
TARGET DESC: K562
CATEGORY: inactive
//
COMPOUND: c1ccc(CSc2nc3ccccc3nc2-c2cccs2)cc1
TARGET DESC: K562
CATEGORY: inactive
//
COMPOUND: CC1(C)CC2=C(Sc3ccccc3N2)C(=O)C1C(=O)C(=O)Nc1cccc([N+](=O)[O-])c1 (stereo not drawn)
TARGET DESC: K562
CATEGORY: inactive
//
COMPOUND: CS/C(c1ccccc1)=[N+](/C)[O-]
TARGET DESC: K562
CATEGORY: inactive
//
COMPOUND: COC(=O)C1Cc2cc3c(cc2C1=O)CCC3 (stereo not drawn)
TARGET DESC: K562
CATEGORY: inactive
//
COMPOUND: CC(C)CC(=O)CC(C)[C@]1(CCCOCc2ccccc2)C(=O)N2CCC3(C[C@@]24CCC[C@H]41)OCCO3 (stereo partly drawn)
TARGET DESC: K562
CATEGORY: inactive
//
COMPOUND: O=C(CSc1nc2ccc(I)cc2c(=O)n1Cc1ccccc1)NNC(=S)Nc1ccccc1
TARGET DESC: K562
CATEGORY: inactive
//
COMPOUND: CC(C)(C)OC(=O)Cn1ncn(NC(=O)Cc2ccccc2)c1=O
TARGET DESC: K562
CATEGORY: inactive
//
COMPOUND: CCCCCCCC(=O)OCC(C[As](=O)(O)O)OC(=O)CCCCCCC (stereo not drawn)
TARGET DESC: K562
CATEGORY: inactive
//
COMPOUND: c1ccc(C2OC3(CCC[C@H]4C[C@H]43)O[C@H]2c2ccccc2)cc1 (stereo partly drawn)
TARGET DESC: K562
CATEGORY: inactive
//
COMPOUND: CC(C)NC(=O)OCc1c(COC(=O)NC(C)C)n(C)c2c1ccc1sccc12
TARGET DESC: K562
CATEGORY: inactive
//
COMPOUND: O=C(N/N=C\c1cccc(O)c1)c1ccncc1
TARGET DESC: K562
CATEGORY: inactive
//
COMPOUND: O=C1Nc2ccc(Br)cc2/C1=N/NC(=S)Nc1ccc(F)cc1
TARGET DESC: K562
CATEGORY: inactive
//
COMPOUND: COC(=O)[C@H](Cc1ccccc1)NC(=O)N(CCC#N)CCCCN(CCC#N)C(=O)N[C@@H](Cc1ccccc1)C(=O)OC
TARGET DESC: K562
CATEGORY: inactive
//
COMPOUND: CC(=O)OCC1OC(On2ccccc2=S)C(OC(C)=O)C(OC(C)=O)C1OC(C)=O (stereo not drawn)
TARGET DESC: K562
CATEGORY: inactive
//
COMPOUND: O=C(C/C(=N\NC(=O)C[n+]1ccccc1)C(=O)Nc1nc2ccc([N+](=O)[O-])cc2s1)CC(c1ccccc1)c1c(O)c2ccccc2oc1=O (stereo not drawn)
TARGET DESC: K562
CATEGORY: inactive
